# System: HOP-62
# experimental details: NCI tumour cell line growth inhibition, 48 h
Activity calls are given as the source filed them. No stated cut-off is given here; in the data, active = GI50 up to about 1.1 µM and inactive = higher.
# GI50 annotations
observed property: GI50

> print(dat)
                                    compound  observed.property              measured
 1   O=C(C(=O)n1ccc2ccccc21)c1c[nH]c2ccccc12               GI50    > 10 µM (inactive)
 2            NNC(=O)c1ccc[n+](CCc2ccccc2)c1               GI50   > 100 µM (inactive)
 3  COC(=O)C1(C)NCCc2c1[nH]c1ccccc21 (configuration not stated)               GI50   > 100 µM (inactive)
 4         CC1=N/C(=C\c2cccc3ccccc23)C(=O)O1               GI50   > 100 µM (inactive)
 5  NC(=O)C1CCCN1C(=O)C(Cc1c[nH]cn1)NC(=O)C1CCCC1 (configuration not stated)               GI50   > 100 µM (inactive)
 6  C[C@@H]1OC(=O)/C(=C\N(C)C)[C@H]2CC(=O)N(CCc3cn(S(=O)(=O)C(F)(F)F)c4ccccc34)C[C@H]12               GI50   > 100 µM (inactive)
 7     COC(=O)Cc1cc(=O)n2c3ccccc3n(C)c2c1C#N               GI50   > 100 µM (inactive)
 8            Nc1c(Cl)ncnc1N[C@@H]1C[C@H]1CO               GI50   > 100 µM (inactive)
 9  C1=C(N2CCOCC2)/C(=C2\SC(=N/c3ccccc3)/C(=N\c3ccccc3)N2c2ccccc2)CC1               GI50    28.9 µM (inactive)
10  [O-][S+](c1ccccc1)C1CC2CC3(CCC21O)OCCO3 (configuration not stated)               GI50   > 100 µM (inactive)
11  CCC(c1c[nH]c2ccc(Br)cc12)c1c[nH]c2ccc(Br)cc12               GI50    10.5 µM (inactive)
12  COC(=O)C(=O)C(C(=O)C(=O)Nc1cc(C)ccc1C)c1nc2ccccc2nc1O (configuration not stated)               GI50   > 100 µM (inactive)
13  Cc1cn(CC2=NC3CCCCC3N2)c(=O)[nH]c1=O (configuration not stated)               GI50   > 100 µM (inactive)
14  CC(=O)OCC1=C(C(=O)O)C(c2ccc3c(c2)OCO3)c2cc3c(cc2O1)OCO3 (configuration not stated)               GI50   > 100 µM (inactive)
15       Nc1ccc2c(c1)C(=O)N1CCC[C@H]1C(=O)N2               GI50   > 100 µM (inactive)
16       COc1cc2oc(=O)cc(C)c2cc1[N+](=O)[O-]               GI50    41.6 µM (inactive)
17  CCOC(=O)CCC(NC(=O)Cc1ccc(Nc2nc3ccccc3nc2-c2ccccc2)cc1)C(=O)OCC (configuration not stated)               GI50    6.46 µM (inactive)
18  O=c1c2cc(Cl)cc(Cl)c2oc2nc3n(c(=O)c12)CCCS3               GI50   > 100 µM (inactive)
19  O=P1(c2ccccc2)C2=CCC=CC2C(c2ccccc2)N1Cc1ccccc1 (configuration not stated)               GI50    19.6 µM (inactive)
20     CN(C)Cc1cc(C(C)(C)C)cc(CNC2CCCCC2)c1O               GI50    41.2 µM (inactive)
21  [N-]=[N+]=Nc1ccc2c(c1)Sc1ccccc1N2CCCCN1CCN(Cc2ccc(C(=O)c3ccccc3)cc2)CC1               GI50  > 38.9 µM (inactive)
22     CCOC(=O)/C(C(=O)NC(C)C)=C(/N)N1CCOCC1               GI50   > 100 µM (inactive)

Where do the numbers come from? From ChEMBL document CHEMBL1201862.
